Cited source for all entries: the NIST ThermoML archive (doi:10.1021/je049776w)

# condition-label: 298.15 K; 101.3 kPa; Liquid
measure: viscosity (mPa·s)
One number for each entry, in mPa·s.

>>> readout_number("C1CCCCC1")
0.9027

For every item below, please supply its viscosity.
1. CCCCCCCC
2. CCCCCCC
3. Cc1ccc(C)cc1

Result ::
1. 0.5206
2. 0.4009
3. 0.6162

----------
# condition-label: 343.15 K; 101.3 kPa; Liquid
measure: viscosity (mPa·s)
Give bare numbers, in mPa·s.

>>> readout_number("CN1CCCC1=O [N-methylpyrrolidone]")
0.9084
>>> readout_number("Cc1ccc(C)cc1 [1,4-dimethylbenzene]")
0.3783
>>> readout_number("CCCCCCC [heptane]")
0.2541

Now take the following compound into account.
Query :: Sample CCCCCCCC [octane] — what was its viscosity?
Result :: 0.3139

----------
# condition-label: 323.15 K; 101.3 kPa; Liquid
Record form. Attribute: viscosity. Fill in for each entry.
Numbers only, in mPa·s.

Example entries begin here.
>>> readout_number("CCCCCCCC")
0.3864
>>> readout_number("CN1CCCC1=O")
1.16
>>> readout_number("C1CCCCC1")
0.5984
>>> readout_number("CCCCCCC")
0.3074

Query :: Value lookup for viscosity; key = `Cc1ccc(C)cc1`
Result :: 0.4599

----------
For each of the compounds below, state its mass density.
# condition-label: 313.15 K; 101.3 kPa; Liquid
One number for each entry, in kg/m3.

Below: 3 compounds and their reported mass density.
>>> readout_number("C1CCCCC1")
759.61
>>> readout_number("CN1CCCC1=O")
1014.55
>>> readout_number("Cc1ccc(C)cc1")
843.64

Need mass density for each of these compounds.
1. CCCCCCCC
2. CCCCCCC

Result ::
1: 687.5; 2: 667.08

----------
# condition-label: 323.15 K; 101.3 kPa; Liquid
Consider the cut-off 700 kg/m3. If the recorded mass density is strictly smaller, the label is yes; if not, the label is no.

Query :: Consider the molecule `CCCCCCC` . Is its mass density strictly less than 700 kg/m3?
Result :: yes

Query :: Determine whether this molecule shows mass density lower than 700 kg/m3 (ties excluded): `CN1CCCC1=O`
Result :: no

Query :: Strictly below 700 kg/m3: is that where mass density of `Cc1ccc(C)cc1` sits?
Result :: no

Query :: Report whether reported mass density is lower than 700 kg/m3 (strictly) for `C1CCCCC1`
Result :: no

----------
Task for the reader: assign each of the following compounds its reported mass density.
# condition-label: 343.15 K; 101.3 kPa; Liquid
Answers are plain numbers, in kg/m3.

// known answers, use as guide
>>> readout_number("CCCCCCC [heptane]")
640.47
>>> readout_number("CCCCCCCC [octane]")
662.54
>>> readout_number("Cc1ccc(C)cc1 [1,4-dimethylbenzene]")
817.17

// next item, mass density requested
Query :: Request the reported mass density associated with CN1CCCC1=O [N-methylpyrrolidone]
Result :: 987.75

----------
# condition-label: 303.15 K; 101.3 kPa; Liquid
measure: viscosity (mPa·s)
Give bare numbers, in mPa·s.

>>> readout_number("CN1CCCC1=O")
1.554
>>> readout_number("C1CCCCC1")
0.8205
>>> readout_number("CCCCCCC")
0.375

Provide the reported viscosity of each entry below, same order.
1. CCCCCCCC
2. Cc1ccc(C)cc1

Result ::
[0.4837, 0.5715]

----------
Exercise: state measured mass density for each of the compounds provided.
# condition-label: 333.15 K; 101.3 kPa; Liquid
Give bare numbers, in kg/m3.

>>> readout_number("CN1CCCC1=O [N-methylpyrrolidone]")
996.71

Below are 3 compounds. Give each one its mass density.
1. CCCCCCC [heptane]
2. CCCCCCCC [octane]
3. C1CCCCC1 [cyclohexane]

Result ::
1: 649.53; 2: 671.02; 3: 740.23

Query :: Tell me the measured mass density of Cc1ccc(C)cc1 [1,4-dimethylbenzene] , please.
Result :: 826.09

----------
# condition-label: 333.15 K; 101.3 kPa; Liquid
I'd appreciate it if you marked entries MET when viscosity is lower than 0.4 mPa·s and NOT MET when it is not.

Query :: Dear reviewer, please state whether CCCCCCCC [octane] has viscosity strictly beneath 0.4 mPa·s.
Result :: MET

Query :: Strictly below 0.4 mPa·s in viscosity? CCCCCCC [heptane]
Result :: MET

Query :: I wonder whether C1CCCCC1 [cyclohexane] has viscosity below 0.4 mPa·s. Can you tell?
Result :: NOT MET

Query :: Consider CN1CCCC1=O [N-methylpyrrolidone] . Does its viscosity lie strictly below 0.4 mPa·s?
Result :: NOT MET

Query :: Please determine if Cc1ccc(C)cc1 [1,4-dimethylbenzene] is below 0.4 mPa·s in terms of viscosity.
Result :: NOT MET

----------
# condition-label: 313.15 K; 101.3 kPa; Liquid
measure: viscosity (mPa·s)
One number for each entry, in mPa·s.

These recorded examples may help you get a feel for the data.
>>> readout_number("CCCCCCC")
0.3373
>>> readout_number("CN1CCCC1=O")
1.332
>>> readout_number("C1CCCCC1")
0.6963
>>> readout_number("Cc1ccc(C)cc1")
0.508

Now consider a different molecule.
Query :: Give the measured viscosity of `CCCCCCCC` .
Result :: 0.4306

----------
Give measured mass density for each item. Keep answers brief.
# condition-label: 298.15 K; 101.3 kPa; Liquid
Numbers only, in kg/m3.

Solved cases below.
>>> readout_number("CCCCCCC [heptane]")
679.9
>>> readout_number("C1CCCCC1 [cyclohexane]")
773.82
>>> readout_number("Cc1ccc(C)cc1 [1,4-dimethylbenzene]")
856.7

We next turn to a different molecule, shown below.
Query :: Which mass density reading was recorded for the molecule CCCCCCCC [octane] ?
Result :: 699.9

----------
# condition-label: 303.15 K; 101.3 kPa; Liquid
Is mass density at least 700 kg/m3? Then yes. If not, no.

>>> group("CN1CCCC1=O")
"yes"
>>> group("CCCCCCC")
"no"
>>> group("C1CCCCC1")
"yes"

We now examine a further molecule.
Query :: # check: mass density of `Cc1ccc(C)cc1` is greater than or equal to 700 kg/m3
Result :: yes
